Attribution: PubChem BioAssay AID179

System: CEM cells HIV-1 protection, formazan growth assay
methodSummary: NCI AIDS Antiviral Assay
Method: The ability of compounds to protect human CEM cells from HIV-1 infection is measured as a screen for new compounds capable of inhibiting the HIV virus. Five concentrations of drug were tested on uninfected and infected cells and cell growth was measured using a soluble formazan assay. […] Compounds that provided at least 50% protection were retested. Compounds that provided at least 50% protection on retest were listed as moderately active. […]
pEC50: −log10 of the molar value.
Collected pEC50 values appear next to each entry.

| compound | pEC50 |
| --- | --- |
| CNc1cc(Cl)ccc1S(=O)(=O)c1ccccc1[N+](=O)[O-] | 5.27 |

I have this compound here, COc1ccc(/C=C2\CCCCCC2=O)cc1 , and I need its recorded pEC50. < 3.70

====

Tested on: CEM cells HIV-1 protection, formazan growth assay
methodSummary: NCI AIDS Antiviral Assay
Description: The ability of compounds to protect human CEM cells from HIV-1 infection is measured as a screen for new compounds capable of inhibiting the HIV virus. Five concentrations of drug were tested on uninfected and infected cells and cell growth was measured using a soluble formazan assay. […] Compounds that provided at least 50% protection were retested. Compounds that provided at least 50% protection on retest were listed as moderately active. […]
Collected EC50 values appear next to each entry.

Reference set (2 entries):
| structureSmilesString | propertyName | result |
| --- | --- | --- |
| Cc1c(CCO)c(=O)n2c([nH]c3ccccc32)c1C#N | EC50 | > 107 µM |
| COc1ccccc1C(=O)c1c(NCc2ccccc2)c(=O)c1=O | EC50 | > 200 µM |

I have this molecule here, Cn1cnc([N+](=O)[O-])c1Sc1nnnn1C , and I need its recorded EC50. > 1020 µM

====

Tested on: CEM cells HIV-1 protection, formazan growth assay
methodSummary: NCI AIDS Antiviral Assay
testConditions: measured here: growth of uninfected CEM cells
Collected log10 of IC50 values appear next to each entry.
In our notation, the value equals log10 of IC50 in µM.

| compound | log10 of IC50 |
| --- | --- |
| CC1(C)Nc2cccc3c(N=Nc4ccc(N=Nc5ccccc5)c5ccccc45)ccc(c23)N1 | 1.42 |

I have this compound here, N#Cc1nc(COCCOCc2ccccc2)oc1N , and I need its recorded log10 of IC50. 2.03

I have this compound here, Cc1cc(C(=O)O)c(C)cc1SSc1cc(C)c(C(=O)O)cc1C , and I need its recorded log10 of IC50. 1.88

I have this compound here, O=C(O)c1ccccc1Sc1ccc(C=C2NC(=S)N(c3ccccc3)C2=O)s1 , and I need its recorded log10 of IC50. 1.99

I have this compound here, CSc1ncnc2c1ncn2C1CC(Oc2ccc(C)cc2)C(COc2ccc(C)cc2)O1 (stereo unspecified) , and I need its recorded log10 of IC50. 1.49

I have this compound here, CC1c2c(cc(OC(=O)c3cccc(S(=O)(=O)F)c3)nc2OC(=O)c2cccc(S(=O)(=O)F)c2)C(=O)N1Cc1ccccc1 (stereo unspecified) , and I need its recorded log10 of IC50. 0.27

I have this compound here, COC(=O)C1=C(C(=O)OC)N(c2ccncc2)C(c2ccco2)=CC1c1ccccc1[N+](=O)[O-] (stereo unspecified) , and I need its recorded log10 of IC50. 0.86

I have this compound here, Cc1ccc(S(=O)(=O)N2C[C@](O)(c3ccccc3)[C@H]2C)cc1 , and I need its recorded log10 of IC50. 2.29

I have this compound here, COc1ccc(C)cc(=O)c1O , and I need its recorded log10 of IC50. 1.16

I have this compound here, BrC/C=C/C[P+](c1ccccc1)(c1ccccc1)c1ccccc1 , and I need its recorded log10 of IC50. -0.22

I have this compound here, COC(=O)Cc1c([C@@H]2Nc3ccccc3[C@H]2CC(=O)OC)[nH]c2ccccc12 , and I need its recorded log10 of IC50. 1.48

I have this compound here, C/C=C/C[P+](Cc1ccccc1)(c1ccccc1)c1ccccc1 , and I need its recorded log10 of IC50. 0.62

I have this compound here, O=C(CC1(O)C(=O)Nc2c(Cl)cc(Cl)cc21)c1ccc2ccccc2c1 (stereo unspecified) , and I need its recorded log10 of IC50. 1.31
